Test system: Setaria faberi (SETFA)
Test: Post-emergence herbicidal glasshouse test on Setaria faberi
Type: in vivo
Settings: post-emergence; 1000 g/h; evaluated after 13 days
Measurement type: POST Application SETFA herbicidal damage (five point scale)

Past entries and their recorded results:
>>> value("Cn1ncc(-c2ccc(C(F)(F)F)nc2C#N)c(O)c1=O [Compound 4.015]")
"1 (1=0-19% damage)"
>>> value("Cn1ncc(-c2cccn(CC3CC3)c2=O)c(O)c1=O [Compound 9.006]")
"2 (2=20-39% damage)"

Requested read-out: POST Application SETFA herbicidal damage (five point scale). Entry: Cn1ncc(-c2ccc(OCC(F)(F)F)cc2S(C)(=O)=O)c(O)c1=O [Compound 2.030] 5 (5=80-100% damage)

Now try CCn1ncc(-c2ccc(Cl)cc2S(C)(=O)=O)c(O)c1=O [Compound 2.017] . 5 (5=80-100% damage)

Record: Cn1ncc(-c2ccc(C(F)(F)F)cc2S(C)(=O)=O)c(O)c1=O [Compound 1.028] 5 (5=80-100% damage)
